Target: Multimetal Binding Site (MBS) of Human Serum Albumin (HSA) (Homo sapiens, UniProt P02768)
Construct: purchased Sigma
Sequence (P02768 25-609): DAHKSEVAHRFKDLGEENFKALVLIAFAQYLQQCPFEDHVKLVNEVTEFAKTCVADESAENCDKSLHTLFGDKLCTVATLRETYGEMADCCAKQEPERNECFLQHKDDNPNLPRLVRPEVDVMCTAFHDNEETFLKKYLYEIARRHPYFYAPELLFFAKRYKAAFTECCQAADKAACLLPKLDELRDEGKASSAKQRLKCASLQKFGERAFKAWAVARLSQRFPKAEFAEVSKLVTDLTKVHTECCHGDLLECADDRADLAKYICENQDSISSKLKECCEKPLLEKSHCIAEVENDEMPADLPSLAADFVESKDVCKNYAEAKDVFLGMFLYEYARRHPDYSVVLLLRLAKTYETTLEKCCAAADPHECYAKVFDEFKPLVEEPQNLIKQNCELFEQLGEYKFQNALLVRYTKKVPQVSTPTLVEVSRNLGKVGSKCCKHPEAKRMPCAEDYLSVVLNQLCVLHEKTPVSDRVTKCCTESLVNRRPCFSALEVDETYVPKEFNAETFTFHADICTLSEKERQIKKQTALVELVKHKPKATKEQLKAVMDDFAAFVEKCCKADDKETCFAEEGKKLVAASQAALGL
Test: Visible-range CD titration of Cu(II) binding at MBS of HSA
Details: 100 mM ligand solution, pH 7.4, 25°C, HSA 0.3–0.5 mM; binary species only assumed
Procedure: The CD spectra were recorded at 25°C on a Jasco J-715 spectropolarimeter (JASCO, Japan Spectroscopic Co., Hiroshima, Japan), over the range of 300–800 nm, using a 1 cm cuvette. […] HSA was dissolved at 0.3–0.5 mM in either a 100 mM Hepes, Tris, Sodium Phosphate buffers, pH 7.4, or in an unbuffered 100 mM NaCl solution. […] The fractional abundance of NTS in HSA was measured by careful CD titrations using calibrated Cu(II) solutions. […]
value-type: log K app (apparent binding constant of the Cu(II)-MBS complex)

>  <compound>
O=P(O)(O)O [Phosphate, sodium phosphate]

>  <result>
5.17(7)

$$$$
>  <compound>
NC(CO)(CO)CO [Tris, 2-amino-2(hydroxymethyl)-1,3-propanediol]

>  <result>
4.23(6)

$$$$
>  <compound>
O=S(=O)(O)CCN1CCN(CCO)CC1

>  <result>
4.45(5)

$$$$
>  <compound>
[Cl-].[Na+]

>  <result>
4.60(3)

$$$$
